Measured values drawn from patent US8617516B2 for this set.

- experiment.summary: Surface plasmon resonance (Biacore X 100) binding of peptides on immobilized perfluorocarbon nanoparticles
- experimental.parameters: VCAM-targeting peptides on perfluorocarbon nanoparticles; read-out: dissociation constant
Listing: pKd of selected substances
Hey, just a heads up that pKd is the negative log base 10 of the concentration in molar.

[[record]]
substance = "VHPKQHRggVLTTGLPALISWIKR [TCP2]"
measured_number = 7.40


Find the recorded pKd belonging to VLTTGLPALISWIKRggVHPKQHR [TCP1] and report it.
6.89
